target: Receptor-interacting serine/threonine-protein kinase 1 (Homo sapiens)
Sequence (Q13546 whole entry): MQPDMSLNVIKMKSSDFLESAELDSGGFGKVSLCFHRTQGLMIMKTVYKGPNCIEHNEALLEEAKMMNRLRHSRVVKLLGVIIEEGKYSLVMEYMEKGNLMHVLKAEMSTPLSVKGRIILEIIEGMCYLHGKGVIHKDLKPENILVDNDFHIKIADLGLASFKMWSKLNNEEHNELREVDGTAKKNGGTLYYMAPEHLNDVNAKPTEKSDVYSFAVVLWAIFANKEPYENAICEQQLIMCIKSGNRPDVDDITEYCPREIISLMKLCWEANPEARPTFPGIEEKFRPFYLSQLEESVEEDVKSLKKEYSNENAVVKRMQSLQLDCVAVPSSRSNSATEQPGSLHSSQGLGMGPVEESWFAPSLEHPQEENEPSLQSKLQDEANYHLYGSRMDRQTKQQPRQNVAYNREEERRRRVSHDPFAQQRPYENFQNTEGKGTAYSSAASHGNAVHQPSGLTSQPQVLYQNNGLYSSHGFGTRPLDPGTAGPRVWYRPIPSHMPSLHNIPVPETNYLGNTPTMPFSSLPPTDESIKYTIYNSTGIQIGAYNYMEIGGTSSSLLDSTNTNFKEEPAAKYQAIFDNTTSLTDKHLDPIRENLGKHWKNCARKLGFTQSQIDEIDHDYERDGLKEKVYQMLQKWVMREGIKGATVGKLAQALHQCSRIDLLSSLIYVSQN
Measure: IC50

1. CNC(=O)c1cc(Oc2ccc(NC(=O)Nc3cc(C(C)(C)C)nn3-c3ccc4ncccc4c3)c(F)c2)ccn1 : 6.49 nM

* * *

pIC50: −log10 of the molar value.
pIC50 values recorded for Receptor-interacting serine/threonine-protein kinase 3 (Homo sapiens, UniProt Q9Y572)
Measure: pIC50

1. COc1cc(CCc2cc(NC(=O)c3ccc(N4C[C@@H](C)N[C@@H](C)C4)cc3)n[nH]2)cc(OC)c1 : 5.00
2. CN1C(=O)[C@@H](Cc2c[nH]c3c(Cl)c(F)ccc23)N(C=O)C1=O : 6.44
